Target: 肺炎支原体天然抗原(购自Microbix) (Mycoplasma pneumoniae)
Experiment: indirect ELISA on coated antigen (2 ug/ml), antibody 4.12 ng/ml
attribute-measured: OD值 (450nm, 参考630nm) (OD)
Write it as a number; the unit OD goes unstated.

Anti-MP-11F5mut7 (antibody, mouse IgG1, kappa, V domains shown) VH: QVQLQQSGPELVKPGALVKISCKASGYTFTSFDINWVKQRPGQGLEWIGYIYPGDGSTKYNEKFKGKATLTADKSSSTAYMQFSSLTSENSAVYFCTRKGGWGAGHSAMDYWGQGTSVTVSS VL: DIQMTQTTSSLSASLGDRVTISCRASQAISNYINWYQQRPDGTVKLLIYYTSRKNSGAPSRFSGSGSGTDYSLTISNIDQEDIATYFCQQGYTTPYTFGGGTKLEIKR: 1.51
Anti-MP-11F5mut6 (antibody, mouse IgG1, kappa, V domains shown) VH: QVQLQQSGPELVKPGALVKISCKASGYTFTSFDINWVKQRPGQGLEWIGYIYPGDGSTKYNEKFKGKATLTADKSSSTAYMQFSSLTSEDSAVYFCTRKGGWGAGHSAMDYWGQGTSVTVSS VL: DIQMTQTTSSLSASLGDRVTISCRASQAISNYINWYQQRPDGTVKLLIYYTSRKNSGAPSRFSGSGSGTDYSLTISNLDQEDIATYFCQQGYTTPYTFGGGTKLEIKR: 0.85

Please look up its OD值 (450nm, 参考630nm): Anti-MP-11F5mut4 (antibody, mouse IgG1, kappa, V domains shown) VH: QVQLQQSGPELVKPGALVKISCKASGYTFTSFDINWVKQRPGQGLEWIGYIYPGDGSTKYNEKFKGKATLTADKSSSTAYMQFSSLTSENSAVYFCTRKGGWGAGHSAMDYWGQGTSVTVSS VL: DIQMTQTTSSLSASLGDRVTISCRASQAISNYINWYQQRPDGTVKLLIYYTSRKNSGAPSRFSGSGSGTDYSLTISNLDQEDIATYFCQQGYTTPYTFGGGTKLEIKR
1.92

Consider next the binder Anti-MP-11F5mut5 (antibody, mouse IgG1, kappa, V domains shown) VH: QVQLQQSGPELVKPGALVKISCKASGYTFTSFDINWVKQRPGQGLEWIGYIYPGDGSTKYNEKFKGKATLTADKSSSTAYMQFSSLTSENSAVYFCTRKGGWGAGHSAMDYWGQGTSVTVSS VL: DIQMTQTTSSLSASLGDRVTISCRASQAISNYLNWYQQRPDGTVKLLIYYTSRKNSGAPSRFSGSGSGTDYSLTISNIDQEDIATYFCQQGYTTPYTFGGGTKLEIKR in the same way.
0.837

Also need Anti-MP-11F5mut8 (antibody, mouse IgG1, kappa, V domains shown) VH: QVQLQQSGPELVKPGALVKISCKASGYTFTSFDINWVKQRPGQGLEWIGYIYPGDGSTKYNEKFKGKATLTADKSSSTAYMQFSSLTSEDSAVYFCTRKGGWGAGHSAMDYWGQGTSVTVSS VL: DIQMTQTTSSLSASLGDRVTISCRASQAISNYINWYQQRPDGTVKLLIYYTSRKNSGAPSRFSGSGSGTDYSLTISNIDQEDIATYFCQQGYTTPYTFGGGTKLEIKR , thanks.
1.64

And then Anti-MP-11F5mut1 (antibody, mouse IgG1, kappa, V domains shown) VH: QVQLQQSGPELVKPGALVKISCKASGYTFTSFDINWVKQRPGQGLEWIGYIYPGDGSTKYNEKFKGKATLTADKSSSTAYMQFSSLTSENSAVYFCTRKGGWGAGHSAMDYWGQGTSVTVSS VL: DIQMTQTTSSLSASLGDRVTISCRASQAIGNYLNWYQQRPDGTVKLLIYYTSRKNSGAPSRFSGSGSGTDYSITISNLDQEDIATYFCQQGYTTPYTFGGGTKLEIKR , what is it?
0.815
